Values were extracted from patent US5596002A.

Tested on: Plasmodium falciparum, chloroquine-resistant strain K1
RUN DESCRIPTION: activity against P. falciparum in vitro, strain K1
Format: cell-based
EXPERIMENTAL CONTEXT: Plasmodium falciparum; chloroquine-resistant strain K1; 48 h-72 h; read-out: IC50 (50% growth inhibition)
The threshold is 0.01 µg/mL. Values of IC50 beneath it are tagged Yes; values meeting or exceeding it are tagged No.

Input line: In plain terms, does `C=CCN(C)CCNc1ccnc2cc(Cl)ccc12` come in under 0.01 µg/mL for IC50?
Output line: No

Input line: Hi there! Is IC50 for `C[C@@H]1CCC[C@H](C)N1CCNc1ccnc2cc(Cl)ccc12` below 0.01 µg/mL, do you know?
Output line: No

Input line: For this molecule, is IC50 lower than 0.01 µg/mL? CC1CCCN(CCNc2ccnc3cc(Cl)ccc23)C1 (racemic)
Output line: No

Input line: Input CC1CCCCN1CCNc1ccnc2cc(Cl)ccc12 (racemic) ; condition: IC50 strictly below 0.01 µg/mL. Does it hold?
Output line: No

----------
// reported IC50 per item
System: Plasmodium falciparum, chloroquine-sensitive strain NF54
RUN DESCRIPTION: activity against P. falciparum in vitro, strain NF54
Assay type: cell-based
EXPERIMENTAL CONTEXT: Plasmodium falciparum; chloroquine-sensitive strain NF54; 48 h-72 h; read-out: IC50 (50% growth inhibition)
Number only, in ng/mL; omit the unit.

Look over these answered cases.
CC(CN1CCCCC1)Nc1ccnc2cc(Cl)ccc12 (racemic) [Example 4]: 7
CC1CCCCN1CCNc1ccnc2cc(Cl)ccc12 (racemic) [Example 26]: 7
CC1CCC(C)N1CCNc1ccnc2cc(Cl)ccc12 (centres unmarked) [Example 30]: 7
CN1CCCC1CNc1ccnc2cc(Cl)ccc12 (centres unmarked) [Example 12a]: 7

Here is the next item to consider.
Input line: Give its IC50 value. Item: Clc1ccc2c(N[C@@H]3CCC[C@H]3N3CCCC3)ccnc2c1 (relative stereo) [Example 11a]
Output line: 7

----------
Below is a list of entries, each paired with its recorded IC50 value.
Test system: Plasmodium falciparum, chloroquine-resistant strain K1
RUN DESCRIPTION: activity against P. falciparum in vitro, strain K1
Type: cell-based
EXPERIMENTAL CONTEXT: Plasmodium falciparum; chloroquine-resistant strain K1; 48 h-72 h; read-out: IC50 (50% growth inhibition)
Respond with the bare value in µg/mL.

Reference set, count: 5
CC(C)(CN1CCCCC1)Nc1ccnc2cc(Cl)ccc12: 0.021
CN1CCCC1CNc1ccnc2cc(Cl)ccc12 (stereo not drawn) [Example 12a]: 0.009
CCN(CC)C[C@H](C)Nc1ccnc2cc(Cl)ccc12 [Example 33e]: 0.053
Clc1ccc2c(NCCN3CCC4CCCCC43)ccnc2c1 (stereo not drawn): 0.011
Clc1ccc2c(NCCCN3CCCC3)ccnc2c1: 0.015

Input line: Look at this molecule and give its reported IC50. CC1CC(C)CN(CCNc2ccnc3cc(Cl)ccc23)C1 (stereo not drawn)
Output line: 0.016

Input line: Please give the measured IC50 for this molecule: `CN(C)CCNc1ccnc2cc(Cl)ccc12`
Output line: 0.007

Input line: Item C[C@H](CN(C)C)Nc1ccnc2cc(Cl)ccc12 [Example 33d] has what recorded IC50?
Output line: 0.023

Input line: Any idea what its IC50 is? The molecule is `CC1(C)CCCN(CCNc2ccnc3cc(Cl)ccc23)C1`
Output line: 0.022

Input line: Find the recorded IC50 belonging to `CCN(CC)CCNc1ccnc2cc(Cl)ccc12` and report it.
Output line: 0.009

Input line: Fill in the blank: the reported IC50 of `Clc1ccc2c(NCCCN3CCCCC3)ccnc2c1` is ____.
Output line: 0.014

Input line: Can you share its IC50? I mean this molecule: C[C@@H](CN(C)C)Nc1ccnc2cc(Cl)ccc12 [Example 33c]
Output line: 0.024

Input line: Query: IC50; subject: `Clc1ccc2c(NCCN3CC4CCC(CC4)C3)ccnc2c1`
Output line: 0.016

Input line: Which IC50 value belongs to CCN(CC)[C@@H]1CCC[C@H]1Nc1ccnc2cc(Cl)ccc12 (racemic) ?
Output line: 0.018

Input line: Fill in the blank: the reported IC50 of CCC1CCCCN1CCNc1ccnc2cc(Cl)ccc12 (racemic) is ____.
Output line: 0.018

Input line: For the molecule Clc1ccc2c(N[C@@H]3CCCC[C@H]3N3CCCC3)ccnc2c1 (racemic) , what IC50 is on record?
Output line: 0.017

----------
Test system: Plasmodium falciparum, chloroquine-resistant strain K1
RUN DESCRIPTION: activity against P. falciparum in vitro, strain K1
Assay type: cell-based
EXPERIMENTAL CONTEXT: Plasmodium falciparum; chloroquine-resistant strain K1; 48 h-72 h; read-out: IC50 (50% growth inhibition)
PROPERTY: IC50 (µg/mL)
Answer in µg/mL, number only, no unit symbol.

Answered cases to consult:
CC(CN1CCCC1)Nc1ccnc2cc(Cl)ccc12 (racemic): 0.012
CN(C)C(C)(C)CNc1ccnc2cc(Cl)ccc12 [Example 33b]: 0.017
CCN(CC)C[C@@H](C)Nc1ccnc2cc(Cl)ccc12 [Example 33f]: 0.041
CCN(CC)CC(C)Nc1ccnc2cc(Cl)ccc12 (racemic): 0.014

Input line: So what's the measured IC50 for this one? `Clc1ccc2c(NCCN3CCCCC3)ccnc2c1`
Output line: 0.011

Input line: May I ask what IC50 has been recorded for CC1CC(C)(C)C(CNc2ccnc3cc(Cl)ccc23)C1N (centres unmarked) ?
Output line: 0.01

----------
Test system: Plasmodium falciparum, chloroquine-resistant strain K1
RUN DESCRIPTION: activity against P. falciparum in vitro, strain K1
Type: cell-based
EXPERIMENTAL CONTEXT: Plasmodium falciparum; chloroquine-resistant strain K1; 48 h-72 h; read-out: IC50 (50% growth inhibition)
Values of IC50 strictly less than 0.01 µg/mL map to Satisfied, and values of at least 0.01 µg/mL map to Not satisfied.

Input line: API: query returns whether the compound falls strictly under 0.01 µg/mL in IC50. Query: C[C@@H](CNc1ccnc2cc(Cl)ccc12)N(C)C [Example 33g]
Output line: Not satisfied

Input line: Item CN(C)CCCNc1ccnc2cc(Cl)ccc12 [Example 15] : IC50 beneath 0.01 µg/mL, strictly?
Output line: Satisfied

Input line: Lab note: IC50 threshold 0.01 µg/mL. Does this compound come in strictly under it? CC1CCC(C)N1CCNc1ccnc2cc(Cl)ccc12 (centres unmarked) [Example 30]
Output line: Not satisfied

Input line: Consider the compound CCN(CC)CCNc1ccnc2cc(C(F)(F)F)ccc12 [Example 21] . Is its IC50 strictly less than 0.01 µg/mL?
Output line: Not satisfied

Input line: Here's an entry: Clc1ccc2c(NCCN3CCCC3)ccnc2c1 [Example 7] . Is its IC50 below 0.01 µg/mL?
Output line: Satisfied

Input line: # check: IC50 < 0.01 µg/mL for Clc1ccc2c(NC3CCN(Cc4ccccc4)CC3)ccnc2c1 [Example 19]
Output line: Satisfied

Input line: is_below(IC50, 0.01 µg/mL) for CN1CCC(Nc2ccnc3cc(Cl)ccc23)C1 (racemic) [Example 33a] ?
Output line: Satisfied

Input line: Please determine if CN1CCCC(Nc2ccnc3cc(Cl)ccc23)C1 (racemic) [Example 19a] is below 0.01 µg/mL in terms of IC50.
Output line: Satisfied

Input line: Input CC(CN1CCCCC1)Nc1ccnc2cc(Cl)ccc12 (racemic) [Example 4] ; condition: IC50 strictly below 0.01 µg/mL. Does it hold?
Output line: Not satisfied

----------
Measured IC50 values are reported for all entries that follow.
System: Plasmodium falciparum, chloroquine-resistant strain K1
RUN DESCRIPTION: activity against P. falciparum in vitro, strain K1
Assay type: cell-based
EXPERIMENTAL CONTEXT: Plasmodium falciparum; chloroquine-resistant strain K1; 48 h-72 h; read-out: IC50 (50% growth inhibition)
Respond with the bare value in µg/mL.

# annotated cases, reported IC50 shown
CCN1CCCC1CNc1ccnc2cc(Cl)ccc12 (centres unmarked) [Example 12]: 0.01
CC1CCN(CCNc2ccnc3cc(Cl)ccc23)CC1 [Example 24]: 0.015

Input line: Tell me the measured IC50 of CC(C)(CN1CCCC1)Nc1ccnc2cc(Cl)ccc12 [Example 13] , please.
Output line: 0.047

Input line: Tell me the measured IC50 of Clc1ccc2c(N[C@@H]3CCC[C@H]3N3CCCC3)ccnc2c1 (relative stereo) [Example 11a] , please.
Output line: 0.015

Input line: What IC50 value was documented for this compound, CCN(CC)[C@@H]1CCCC[C@H]1Nc1ccnc2cc(Cl)ccc12 (racemic) [Example 9] ?
Output line: 0.032

Input line: Could you share which IC50 value was measured for CN(C)CCNc1ccnc2cc(C(F)(F)F)ccc12 [Example 22] ?
Output line: 0.022

Input line: State the recorded IC50 for this entry: CCN(CC)CCCNc1ccnc2cc(Cl)ccc12 [Example 16]
Output line: 0.009

Input line: Using the record for CC(CN(C)C)Nc1ccnc2cc(Cl)ccc12 (racemic) [Example 1] , report its IC50.
Output line: 0.009
